Recorded values, source patent US20250353873A1.

- Tested on: human APOE RNA
- Experimental details: Activity in APOE C57BL/6NTac-Apoeem7250 knock-in mice, single ICV bolus, 8 weeks (Example 11)
- Assay type: in vivo
- Settings: cortex; single ICV bolus 300 μg; 8 weeks post treatment; normalized to mouse Ppia
- Protocol: Modified oligonucleotides described above were tested in the APOE C57BL/6NTac-Apoeem7250 knock-in mouse model described above. Each mouse received a single ICV bolus of 300 μg of modified oligonucleotide. […] Eight weeks post treatment, mice were sacrificed and RNA was extracted from cortical brain tissue and spinal cord for quantitative real-time RT-PCR analysis of RNA expression of APOE using human primer probe set RTS3073 (described herein above). […]
Strand notation (5' to 3'): a small letter for the sugar, then the base; units joined by * are phosphorothioate-linked, units joined directly phosphodiester-linked; [ ] holds rarer units or linkages, { } end groups; capitals alone tell only the bases. [ms] = mesyl phosphoramidate linkage; e = 2'-O-(2-methoxyethyl) (MOE); k = constrained ethyl (cEt); [5mC] = 5-methylcytosine; d = 2'-deoxy (DNA)
Measured attribute: APOE RNA (% control) Cortex

INSERT INTO assay_data (substance, system_tested, value_reported) VALUES
  ('1693044: 5-10-5 MOE gapmer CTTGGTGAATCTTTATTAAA, linkages sssoszzzzssssssssss (antisense e[5mC]*eT*eT*eGeG*dT[ms]dG[ms]dA[ms]dA[ms]dT*d[5mC]*dT*dT*dT*dA*eT*eT*eA*eA*eA) [compound 1693044]', 'human APOE RNA', 86),
  ('1778126 (eA*e[5mC]eTeTkG*kG*dT*dG[ms]dA[ms]dA*dT*d[5mC]*dT*dT*dT*dA[ms]kT*eT*eA*eA; antisense) [Compound 1778126]', 'human APOE RNA', 23),
  ('1810064: mixed MOE/cEt gapmer CTTGGTGAATCTTTATTAAAC, sugar eeeeekddddddddddeeeee, linkages ssoooszzzssssszsooss (e[5mC]*eT*eTeGeGkT*dG[ms]dA[ms]dA[ms]dT*d[5mC]*dT*dT*dT*dA[ms]dT*eTeAeA*eA*e[5mC]) [compound 1810064]', 'human APOE RNA', 23),
  ('Compound No. 1517853: comparator of WO 2022/066956; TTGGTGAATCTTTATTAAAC, sugar eeeeeddddddddddeeeee, linkages sooosssssssssssooss (MOE gapmer, mixed PS/PO linkages, chemistry not fully specified) [reference compound]', 'human APOE RNA', 67);
